Where do the numbers come from? From patent US20230148005A1.

Molecular target: Ba/F3 EGFR-Del19/T790M (Homo sapiens, UniProt P00533, T790M, cells depend on it, form not given)
Sequence (P00533 with tags, fused parts or gaps DEL746-750/T790M, form open): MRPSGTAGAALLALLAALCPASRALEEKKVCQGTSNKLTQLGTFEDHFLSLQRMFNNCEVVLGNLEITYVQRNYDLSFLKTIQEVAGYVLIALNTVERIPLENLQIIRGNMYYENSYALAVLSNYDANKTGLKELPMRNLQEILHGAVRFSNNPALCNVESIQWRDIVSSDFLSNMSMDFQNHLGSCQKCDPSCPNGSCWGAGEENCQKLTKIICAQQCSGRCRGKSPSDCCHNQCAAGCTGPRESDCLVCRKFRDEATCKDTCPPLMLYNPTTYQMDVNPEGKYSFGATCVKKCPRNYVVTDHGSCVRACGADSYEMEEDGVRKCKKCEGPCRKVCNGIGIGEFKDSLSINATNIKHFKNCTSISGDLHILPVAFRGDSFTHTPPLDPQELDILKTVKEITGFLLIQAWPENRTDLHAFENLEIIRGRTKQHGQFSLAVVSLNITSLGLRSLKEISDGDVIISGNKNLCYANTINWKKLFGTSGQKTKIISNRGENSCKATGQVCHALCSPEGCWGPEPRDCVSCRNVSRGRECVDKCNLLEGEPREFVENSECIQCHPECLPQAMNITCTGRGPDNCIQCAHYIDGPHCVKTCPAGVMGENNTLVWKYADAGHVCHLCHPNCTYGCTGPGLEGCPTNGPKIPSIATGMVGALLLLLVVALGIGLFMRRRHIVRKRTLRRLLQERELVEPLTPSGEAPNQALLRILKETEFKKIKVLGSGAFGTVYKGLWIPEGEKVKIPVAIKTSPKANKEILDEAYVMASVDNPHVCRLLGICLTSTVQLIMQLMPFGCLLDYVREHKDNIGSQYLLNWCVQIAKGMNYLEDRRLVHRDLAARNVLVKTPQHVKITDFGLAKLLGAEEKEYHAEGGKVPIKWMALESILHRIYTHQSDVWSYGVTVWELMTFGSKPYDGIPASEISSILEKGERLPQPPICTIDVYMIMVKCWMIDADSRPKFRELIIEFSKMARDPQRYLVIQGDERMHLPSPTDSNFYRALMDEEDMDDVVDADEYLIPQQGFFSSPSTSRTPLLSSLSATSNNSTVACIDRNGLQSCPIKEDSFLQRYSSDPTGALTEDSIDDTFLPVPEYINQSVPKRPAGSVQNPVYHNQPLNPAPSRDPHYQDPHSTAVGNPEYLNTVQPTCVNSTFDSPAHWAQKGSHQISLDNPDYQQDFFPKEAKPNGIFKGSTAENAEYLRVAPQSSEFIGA
Assay: Ba/F3 viability assay (CellTiter-Glo), DT
Type: cell-based
Conditions: anti-proliferation, read-out: BaF3 DT IC50
The entries below come with measured GI50 values attached.
measured_property: GI50

molecule: CCn1c(CN(C)C)ccc1-c1nn2c3cc(ncc13)Nc1ccnc(n1)-c1cnn(C)c1OCC[C@@H]2C [(191)]
assay_result: 10 to 100 nM
//
molecule: C[C@H]1CCOc2c(cnn2C)-c2nccc(n2)Nc2cc3c(cn2)c(-c2ccc(CN4CCCC4)n2C)nn31 [(140)]
assay_result: < 10 nM
//
molecule: Cc1cc(-c2nn3c4cc(ncc24)Nc2ccnc(n2)-c2cnn(C)c2OCC[C@@H]3C)oc1CN(C)C [(168)]
assay_result: < 10 nM
//
molecule: C[C@H]1CCOc2c(cnn2C)-c2nccc(n2)Nc2cc3c(cn2)c(-c2cc(CN4CCN(C)CC4)n(C)n2)nn31 [(95)]
assay_result: 10 to 100 nM
//
molecule: C[C@H]1CCOc2c(cnn2C)-c2nccc(n2)Nc2cc3c(cn2)c(-c2cccc(N4CCC(N(C)C)CC4)c2)nn31 [(108)]
assay_result: 10 to 100 nM
//
molecule: C[C@H]1CCOc2c(cnn2C)-c2nccc(n2)Nc2cc3c(cn2)c(-c2ccc(CN(C)C)o2)nn31 [(162)]
assay_result: < 10 nM
//
molecule: C[C@H]1CCOc2c(cnn2C)-c2nccc(n2)Nc2cc3c(cn2)c(-c2cc(CN4CCN(C)CC4)n(C)c2)nn31 [(144)]
assay_result: < 10 nM
//
molecule: CC(C)n1cc(-c2nn3c4cc(ncc24)Nc2ccnc(n2)-c2cnn(C)c2OCC[C@@H]3C)cc1CN1CCOCC1 [(151)]
assay_result: < 10 nM
//
molecule: CCN(CC)CCOc1ccc(C)c(-c2nn3c4cc(ncc24)Nc2ccnc(n2)-c2cnn(C)c2OCC[C@@H]3C)c1 [(159)]
assay_result: 100 to 1000 nM
//
molecule: CC1CCOc2c(cnn2C)-c2nccc(n2)Nc2cc3c(cn2)c(-c2cc(CN4CCN(C)CC4)cn2C)nn31 (stereo not drawn) [(83)]
assay_result: 10 to 100 nM
//
molecule: CCn1cc(-c2nn3c4cc(ncc24)Nc2ccnc(n2)-c2cnn(C)c2OCCC3C)cc1CN1CCN(C(C)C)CC1 (stereo not drawn) [(80)]
assay_result: < 10 nM
//
molecule: CCn1cc(-c2nn3c4cc(ncc24)Nc2ccnc(n2)-c2cnn(C)c2OCC[C@@H]3C)cc1CN1CCN(C)CC1 [(146)]
assay_result: < 10 nM
//
molecule: C[C@H]1CCOc2c(cnn2C)-c2nccc(n2)Nc2cc3c(cn2)c(-c2ccnc(N4CCN(C)CC4)c2)nn31 [(96)]
assay_result: 10 to 100 nM
//
molecule: CN1CCN(CC2CCCN2c2nn3c4cc(ncc24)Nc2ccnc(n2)-c2cnn(C)c2OCCC3)CC1 (stereo not drawn) [(10)]
assay_result: 100 to 1000 nM
//
molecule: CCn1cc(-c2nn3c4cc(ncc24)Nc2ccnc(n2)-c2cnn(C)c2OCCC3C)cc1CN1CCN(C)CC1 (stereo not drawn) [(76)]
assay_result: < 10 nM

----------
Target: EGFR^L858R (Homo sapiens, UniProt P00533, L858R)
Sequence (P00533 25-1210 L858R): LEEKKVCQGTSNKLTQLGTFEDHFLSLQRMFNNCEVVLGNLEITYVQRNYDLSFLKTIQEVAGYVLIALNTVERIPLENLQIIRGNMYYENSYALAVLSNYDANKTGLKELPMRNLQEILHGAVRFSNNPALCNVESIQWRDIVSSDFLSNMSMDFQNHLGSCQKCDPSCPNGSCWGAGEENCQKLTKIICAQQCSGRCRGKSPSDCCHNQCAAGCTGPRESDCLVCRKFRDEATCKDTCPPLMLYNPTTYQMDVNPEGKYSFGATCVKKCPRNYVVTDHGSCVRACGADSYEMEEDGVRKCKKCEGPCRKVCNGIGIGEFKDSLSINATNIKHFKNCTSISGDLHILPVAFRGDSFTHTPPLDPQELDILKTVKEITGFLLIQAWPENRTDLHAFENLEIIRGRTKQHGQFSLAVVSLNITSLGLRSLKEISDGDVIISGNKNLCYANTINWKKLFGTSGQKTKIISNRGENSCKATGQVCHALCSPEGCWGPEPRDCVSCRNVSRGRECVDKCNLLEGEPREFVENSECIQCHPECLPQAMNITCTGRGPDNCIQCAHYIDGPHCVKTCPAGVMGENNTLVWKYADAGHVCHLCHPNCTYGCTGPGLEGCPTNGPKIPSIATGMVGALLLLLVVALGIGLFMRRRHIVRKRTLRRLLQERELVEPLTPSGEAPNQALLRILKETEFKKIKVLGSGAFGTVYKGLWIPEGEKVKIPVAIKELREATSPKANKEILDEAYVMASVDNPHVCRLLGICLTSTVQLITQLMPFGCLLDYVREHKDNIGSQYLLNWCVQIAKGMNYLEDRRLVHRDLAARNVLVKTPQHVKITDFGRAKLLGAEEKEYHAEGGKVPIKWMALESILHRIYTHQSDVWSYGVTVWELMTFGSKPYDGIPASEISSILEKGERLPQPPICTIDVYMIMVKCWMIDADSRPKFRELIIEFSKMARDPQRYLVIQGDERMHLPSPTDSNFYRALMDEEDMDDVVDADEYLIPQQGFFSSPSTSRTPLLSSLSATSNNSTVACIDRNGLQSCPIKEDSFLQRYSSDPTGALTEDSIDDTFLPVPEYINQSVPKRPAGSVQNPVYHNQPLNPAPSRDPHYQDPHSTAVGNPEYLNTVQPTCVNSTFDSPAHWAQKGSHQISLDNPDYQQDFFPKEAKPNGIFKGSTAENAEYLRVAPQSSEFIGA
Experiment: in vitro kinase assay (HTRF KinEASE-TK kit), L
Details: kinase inhibition
pIC50: −log10 of the molar value.
measured_property: pIC50

molecule: C[C@H]1CCOc2c(cnn2C)-c2nccc(n2)Nc2cc3c(cn2)c(-c2ncc(CN(C)C)s2)nn31
assay_result: > 8.00

molecule: C[C@H]1CCOc2c(cnn2C)-c2nccc(n2)Nc2cc3c(cn2)c(-c2cnn(CCCN4CCOCC4)c2)nn31
assay_result: 7.00 to 8.00

molecule: C[C@H]1CCOc2c(cnn2C)-c2nccc(n2)Nc2cc3c(cn2)c(-c2cc4c(n2C)CCCN(C)C4)nn31
assay_result: > 8.00

molecule: CC1CCCOc2c(cnn2C)-c2nccc(n2)Nc2cc3c(cn2)c(-c2cc(CN4CCN(C)CC4)nn2C)nn31 (stereo not shown)
assay_result: 7.00 to 8.00

----------
Biological target: Ba/F3 EGFR-Del19/T790M/C797S (Homo sapiens, UniProt P00533, T790M/C797S, cells depend on it, form not given)
Sequence (P00533 with tags, fused parts or gaps DEL746-750/T790M/C797S, form open): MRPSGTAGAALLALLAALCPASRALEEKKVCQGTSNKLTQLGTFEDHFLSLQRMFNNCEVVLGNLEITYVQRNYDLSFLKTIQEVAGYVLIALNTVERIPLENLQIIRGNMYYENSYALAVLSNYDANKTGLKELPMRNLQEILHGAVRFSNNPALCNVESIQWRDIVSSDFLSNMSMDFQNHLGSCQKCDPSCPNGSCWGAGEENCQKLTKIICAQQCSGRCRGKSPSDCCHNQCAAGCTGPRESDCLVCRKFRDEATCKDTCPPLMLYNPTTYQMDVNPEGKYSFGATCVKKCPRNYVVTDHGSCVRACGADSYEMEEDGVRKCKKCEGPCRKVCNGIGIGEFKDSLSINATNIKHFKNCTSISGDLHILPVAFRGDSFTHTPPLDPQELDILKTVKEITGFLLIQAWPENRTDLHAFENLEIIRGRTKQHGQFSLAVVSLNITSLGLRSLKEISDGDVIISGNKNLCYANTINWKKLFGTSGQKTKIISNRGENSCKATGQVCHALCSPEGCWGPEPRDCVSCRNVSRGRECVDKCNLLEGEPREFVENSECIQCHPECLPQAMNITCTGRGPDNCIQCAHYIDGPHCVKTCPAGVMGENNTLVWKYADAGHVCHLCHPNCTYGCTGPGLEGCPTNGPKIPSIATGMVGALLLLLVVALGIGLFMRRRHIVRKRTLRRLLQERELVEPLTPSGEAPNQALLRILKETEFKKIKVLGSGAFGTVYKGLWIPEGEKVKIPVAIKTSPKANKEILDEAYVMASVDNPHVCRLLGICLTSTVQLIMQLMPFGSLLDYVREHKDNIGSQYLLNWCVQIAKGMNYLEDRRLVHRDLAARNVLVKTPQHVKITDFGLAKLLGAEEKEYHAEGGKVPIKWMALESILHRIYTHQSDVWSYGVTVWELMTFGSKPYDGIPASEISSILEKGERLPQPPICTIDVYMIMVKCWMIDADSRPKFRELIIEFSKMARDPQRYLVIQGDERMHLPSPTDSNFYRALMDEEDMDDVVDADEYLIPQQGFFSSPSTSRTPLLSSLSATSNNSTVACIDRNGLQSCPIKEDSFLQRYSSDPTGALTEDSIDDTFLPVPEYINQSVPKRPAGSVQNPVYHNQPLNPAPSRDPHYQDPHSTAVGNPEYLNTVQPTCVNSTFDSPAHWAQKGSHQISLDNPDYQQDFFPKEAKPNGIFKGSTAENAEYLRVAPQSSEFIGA
Assay: Ba/F3 viability assay (CellTiter-Glo), DTC
Assay type: cell-based
Details: anti-proliferation, read-out: BaF3 DTC IC50

compound: C[C@H]1CCOc2c(cnn2C)-c2nccc(n2)Nc2cc3c(cn2)c(-c2ccc(CN4CCCCC4)n2C)nn31
GI50: < 10 nM

compound: CC(C)N1CCN(Cc2csc(-c3nn4c5cc(ncc35)Nc3ccnc(n3)-c3cnn(C)c3OCC[C@@H]4C)n2)CC1
GI50: 10 to 100 nM

compound: C[C@H]1CCOc2c(cnn2C)-c2nccc(n2)Nc2cc3c(cn2)c(-c2cc(F)cc(OCCN(C)C)c2)nn31
GI50: 10 to 100 nM

compound: CCCN(C)Cc1ccc(-c2nn3c4cc(ncc24)Nc2ccnc(n2)-c2cnn(C)c2OCC[C@@H]3C)n1C
GI50: < 10 nM

compound: C[C@H]1CCOc2c(cnn2C)-c2nccc(n2)Nc2cc3c(cn2)c(-c2cccc(N4CCC(N5CCOCC5)CC4)c2)nn31
GI50: < 10 nM

compound: CCN(CC)CCOc1cc(-c2nn3c4cc(ncc24)Nc2ccnc(n2)-c2cnn(C)c2OCC[C@@H]3C)ccc1F
GI50: < 10 nM

compound: CC1CCCOc2c(cnn2C)-c2nccc(n2)Nc2cc3c(cn2)c(-c2ccc(CN4CCN(C5CC5)CC4)o2)nn31 (stereo not drawn)
GI50: < 10 nM

compound: C[C@H]1CCOc2c(cnn2C)-c2nccc(n2)Nc2cc3c(cn2)c(-c2cc(CN4CCN(C)CC4)n(C)n2)nn31
GI50: 10 to 100 nM

compound: C[C@H]1CCOc2c(cnn2C)-c2nccc(n2)Nc2cc3c(cn2)c(N2CC[C@H](CN(C)CCF)C2)nn31
GI50: < 10 nM

compound: CCN(CC)CCOc1cc(-c2nn3c4cc(ncc24)Nc2ccnc(n2)-c2cnn(C)c2OCC[C@@H]3C)ccc1Cl
GI50: 10 to 100 nM

compound: C[C@H]1CCOc2c(cnn2C)-c2nccc(n2)Nc2cc3c(cn2)c(-c2ccc(CN4CCN(CCF)CC4)n2C)nn31
GI50: < 10 nM

compound: CC1CCCOc2c(cnn2C)-c2nccc(n2)Nc2cc3c(cn2)c(N2CCC2)nn31 (stereo not drawn)
GI50: < 10 nM

compound: C[C@H]1CCOc2c(cnn2C)-c2nccc(n2)Nc2cc3c(cn2)c(-c2ccc(F)c(OCCN4CCOCC4)c2)nn31
GI50: < 10 nM

compound: C[C@H]1CCOc2c(cnn2C)-c2nccc(n2)Nc2cc3c(cn2)c(-c2cnn(CCN4CCOCC4)c2)nn31
GI50: 10 to 100 nM

compound: C[C@H]1CCOc2c(cnn2C)-c2nccc(n2)Nc2cc3c(cn2)c(N2CC[C@H](N(C)CCF)C2)nn31
GI50: < 10 nM

----------
Biological target: Ba/F3 EGFR-Del19/T790M/C797S (Homo sapiens, UniProt P00533, T790M/C797S, cells depend on it, form not given)
Test: Ba/F3 viability assay (CellTiter-Glo), DTC
Type: cell-based
Details: anti-proliferation, read-out: BaF3 DTC IC50
The entries below come with measured GI50 values attached.
measured_property: GI50

molecule: CN(C)CC1CCCN1c1nn2c3cc(ncc13)Nc1ccnc(n1)-c1cnn(C)c1OCCC2 (stereo not shown)
assay_result: 100 to 1000 nM

molecule: C[C@H]1CCOc2c(cnn2C)-c2nccc(n2)Nc2cc3c(cn2)c(-c2ccc(CN4CCN(C5COC5)CC4)n2C)nn31
assay_result: < 10 nM

molecule: C[C@H]1CCOc2c(cnn2C)-c2nccc(n2)Nc2cc3c(cn2)c(-c2ccc(CN4CC[C@@H](N(C)C)C4)n2C)nn31
assay_result: < 10 nM

molecule: C[C@H]1CCOc2c(cnn2C)-c2nccc(n2)Nc2cc3c(cn2)c(-c2cccc(N4CCC(N(C)C)CC4)c2)nn31
assay_result: < 10 nM

molecule: CCn1cc(CN2CCN(C)CC2)cc1-c1nn2c3cc(ncc13)Nc1ccnc(n1)-c1cnn(C)c1OCCC2C (stereo not shown)
assay_result: 10 to 100 nM

molecule: C[C@H]1CCOc2c(cnn2C)-c2nccc(n2)Nc2cc3c(cn2)c(N2CCN(C4CC4)CC2)nn31
assay_result: 100 to 1000 nM

molecule: CC1CCOc2c(cnn2C)-c2nccc(n2)Nc2cc3c(cn2)c(N2CC(C(=O)N(C)C)C2)nn31 (stereo not shown)
assay_result: 10 to 100 nM

molecule: CC1CCOc2ccncc2-c2nccc(n2)Nc2cc3c(cn2)c(N2CCC2)nn31 (stereo not shown)
assay_result: < 10 nM

molecule: CC1CCOc2c(cnn2CC2CC2)-c2nccc(n2)Nc2cc3c(cn2)c(N2CCC2)nn31 (stereo not shown)
assay_result: 10 to 100 nM

molecule: CC(C)n1ncc2c1OCCCC(C)n1nc(N3CCC3)c3cnc(cc31)Nc1ccnc-2n1 (stereo not shown)
assay_result: 100 to 1000 nM

molecule: C[C@H]1CCOc2c(cnn2C)-c2nccc(n2)Nc2cc3c(cn2)c(-c2ccc(CN4CCOCC4)o2)nn31
assay_result: < 10 nM

molecule: C[C@H]1CCOc2c(cnn2C)-c2nccc(n2)Nc2cc3c(cn2)c(-c2cc(CN4CCN(C)CC4)n(C)c2)nn31
assay_result: < 10 nM

molecule: CCN(CC)C1CCN(c2cc(F)cc(-c3nn4c5cc(ncc35)Nc3ccnc(n3)-c3cnn(C)c3OCC[C@@H]4C)c2)CC1
assay_result: 10 to 100 nM

molecule: CN1CCN(CC2CCN(c3nn4c5cc(ncc35)Nc3ccnc(n3)-c3cnn(C)c3OCCC4)C2)CC1 (stereo not shown)
assay_result: 10 to 100 nM

molecule: C[C@H]1CCOc2c(cnn2C)-c2nccc(n2)Nc2cc3c(cn2)c(-c2cccc(N4CCC(O)CC4)c2)nn31
assay_result: < 10 nM

molecule: CCn1cc(-c2nn3c4cc(ncc24)Nc2ccnc(n2)-c2cnn(C)c2OCC[C@@H]3C)cc1CN1CCOCC1
assay_result: < 10 nM
